Each entry below carries its measured IC50, system: CYP3A4 (Homo sapiens, UniProt P08684).
Sequence (P08684 whole entry): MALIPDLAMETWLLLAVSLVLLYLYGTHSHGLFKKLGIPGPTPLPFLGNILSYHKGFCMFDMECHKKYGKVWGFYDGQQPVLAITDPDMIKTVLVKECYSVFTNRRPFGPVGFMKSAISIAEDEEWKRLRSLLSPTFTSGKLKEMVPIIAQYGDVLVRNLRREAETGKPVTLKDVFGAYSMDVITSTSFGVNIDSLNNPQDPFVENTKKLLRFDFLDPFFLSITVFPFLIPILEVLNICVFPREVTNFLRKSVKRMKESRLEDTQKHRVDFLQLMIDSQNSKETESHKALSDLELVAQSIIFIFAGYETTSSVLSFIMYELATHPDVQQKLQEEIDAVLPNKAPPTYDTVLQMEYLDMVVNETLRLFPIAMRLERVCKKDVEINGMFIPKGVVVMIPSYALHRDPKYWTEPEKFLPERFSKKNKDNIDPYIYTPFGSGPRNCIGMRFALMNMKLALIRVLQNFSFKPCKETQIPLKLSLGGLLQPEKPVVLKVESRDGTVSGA
attribute-measured: IC50

compound="O=C(O)/C(=N\\OCCO)c1nc2ccccc2n([C@H]2C[C@H]3CCC[C@@H](C2)N3C2CC3CCCC(C3)C2)c1=O (stereo partly drawn)" reported_value="> 20 µM"
compound="CC(C)(O/N=C(\\C(=O)O)c1nc2ccccc2n([C@H]2C[C@H]3CC[C@@H](C2)N3C2CC3CCCCC(C3)C2)c1=O)C(N)=O (stereo partly drawn)" reported_value="> 20 µM"
compound="CCN(CC)C(=O)CO/N=C(\\C(=O)O)c1nc2ccccc2n([C@H]2C[C@H]3CCC[C@@H](C2)N3C2CC3CCCC(C3)C2)c1=O (stereo partly drawn)" reported_value="> 20 µM"
compound="CON=C(CCC(=O)O)c1nc2ccccc2n([C@H]2C[C@H]3CC[C@@H](C2)N3C2CC3CCCC(C3)C2)c1=O (stereo partly drawn)" reported_value="> 20 µM"
compound="CNC(=O)CON=C(C(=O)O)c1nc2ccccc2n([C@H]2C[C@H]3CCC[C@@H](C2)N3C2CC3CCCC(C3)C2)c1=O (stereo partly drawn)" reported_value="> 20 µM"
compound="CC(C)(ON=C(C(N)=O)c1nc2ccccc2n([C@H]2C[C@H]3CCC[C@@H](C2)N3C2CC3CCCC(C3)C2)c1=O)C(=O)O (stereo partly drawn)" reported_value="> 20 µM"
